Listed here: items and their measured PBM binding z-score.
System: PPARg:RXRa 270nM:90nM, anti-RXR (NR concentration 270 nM, RXRa partner concentration 90 nM)
Test: PBM binding z-score (relative to random genomic background probes); higher = stronger binding; sequences stand for … in GC…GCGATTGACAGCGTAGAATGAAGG
measuredMetric: PBM binding z-score

>>> assayvalue("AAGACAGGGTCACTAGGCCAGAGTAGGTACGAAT")
6.21
>>> assayvalue("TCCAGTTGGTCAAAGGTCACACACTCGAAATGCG")
9.65
>>> assayvalue("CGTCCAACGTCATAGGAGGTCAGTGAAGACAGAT")
0.77
>>> assayvalue("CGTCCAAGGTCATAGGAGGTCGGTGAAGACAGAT")
4.86
>>> assayvalue("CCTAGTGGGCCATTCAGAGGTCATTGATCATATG")
3.11
>>> assayvalue("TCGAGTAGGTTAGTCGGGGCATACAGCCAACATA")
0.998
>>> assayvalue("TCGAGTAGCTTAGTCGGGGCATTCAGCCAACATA")
-0.0775
>>> assayvalue("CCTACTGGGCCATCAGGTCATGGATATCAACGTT")
4.15
>>> assayvalue("ACTATTAGTCGAGACGAGGGCAACCGATAGGTTG")
0.119
>>> assayvalue("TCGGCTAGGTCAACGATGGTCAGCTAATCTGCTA")
2.37
>>> assayvalue("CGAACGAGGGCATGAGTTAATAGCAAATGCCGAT")
1.98
>>> assayvalue("CGAACTAGGTCAGATCAGGACAGTGAAGGATGAT")
4.64
